- TEST DETAILS: qHTS assay to identify small molecule antagonists of the androgen receptor (AR) signaling pathway using the MDA cell line in the presence of 0.5 nM R1881 - cell viability counter screen (AID 1259242); note: nearly all actives have a fitted effect of over 45% in size
- MEASUREMENT CONDITIONS: MDA-kb2 viability, CellTiter-Fluor protease fluorescence, 16 h; series mostly up to 92.4 µM
Inconclusive results are not listed. Calls of active or inactive are those of the source. Calls come from the whole dose curve; as a rule, active = well fitted cell-killing curve with a large enough effect in the repeat runs; inconclusive = weak or mixed curves, or effect the other way; inactive = flat fitted curve, though single readings scatter.
EXPERIMENTAL READOUT: outcome

> print(dat)
                                   compound  observed
1  CCCCC(CC)C(=O)OCCOCCOCCOC(=O)C(CC)CCCC (stereo unspecified)  inactive
2            CCCCC/C=C\C/C=C\CCCCCCCC(=O)OC  inactive
3  CCOC(=O)[C@H](CCc1ccccc1)N[C@@H](C)C(=O)N1Cc2ccccc2C[C@H]1C(=O)O  inactive
4         O=c1c(-c2ccc(O)cc2)coc2cc(O)ccc12  inactive
5                  COC(=O)c1ccc(C(=O)OC)cc1  inactive

Turning now to a further compound:
Exercise: What value of measured outcome is listed for CCCCC(CC)COC(=O)/C=C\C(=O)OCC(CC)CCCC (stereo unspecified) ?
Solution: inactive

###

- TEST DETAILS: qHTS assay to identify small molecule antagonists of the estrogen receptor alpha (ER-alpha) signaling pathway using the BG1 cell line in the presence of 0.1 nM 17-beta-estradiol - cell viability counter screen (AID 1259241); note: nearly all actives have a fitted effect of over 40% in size
- MEASUREMENT CONDITIONS: VM7Luc4E2 (BG1) viability, CellTiter-Fluor protease, 22 h, 0.1 nM estradiol agonist added; series mostly up to 92.4 µM
- Description: National Center for Advancing Translational Sciences [NCATS] NIH Chemical Genomics Center [NCGC] U.S. Environmental Protection Agency [EPA] National Institutes of Environmental Health Sciences [NIEHS] National Toxicology Program [NTP] U.S. Food and Drug Administration [FDA] Estrogen receptor (ER), a member of the nuclear hormone receptor plays an important role in development, metabolic homeostasis and reproduction. […]
Records with an inconclusive call do not appear. Active and inactive are the calls of the source. Calls come from the whole dose curve; as a rule, active = well fitted cell-killing curve with a large enough effect in the repeat runs; inconclusive = weak or mixed curves, or effect the other way; inactive = flat fitted curve, though single readings scatter.
Answer with one of the outcomes active, inactive

Exercise: Any idea what this test logged for CCCCC(CC)C(=O)OCCOCCOCCOC(=O)C(CC)CCCC (centres undefined) ?
Solution: inactive

Exercise: Any idea what this test logged for O=C(Cl)c1c(Cl)c(Cl)c(C(=O)Cl)c(Cl)c1Cl ?
Solution: inactive

Exercise: Any idea what this test logged for Oc1c(Cl)cc(Cl)c(Cl)c1Cl ?
Solution: inactive

Exercise: Any idea what this test logged for C=C1C2CCC(C2)C1(C)C (centres undefined) ?
Solution: inactive

Exercise: Any idea what this test logged for OCC1CCCO1 (centres undefined) ?
Solution: inactive

Exercise: Any idea what this test logged for CCCCCCCCCC(=O)O ?
Solution: inactive

Exercise: Any idea what this test logged for CC[Si](OC(C)=O)(OC(C)=O)OC(C)=O ?
Solution: inactive

Exercise: Any idea what this test logged for C=C(C)C(=O)OCCC[Si](OC)(OC)OC ?
Solution: inactive

Exercise: Any idea what this test logged for CC(C)(CO)COC(=O)C(C)(C)CO ?
Solution: inactive

Exercise: Any idea what this test logged for O=[N+]([O-])C(CO)(CO)CO ?
Solution: inactive

Exercise: Any idea what this test logged for O=S(=O)(O)CCS ?
Solution: inactive

Exercise: Any idea what this test logged for Cc1ccc(N)c(S(=O)(=O)O)c1 ?
Solution: inactive

Exercise: Any idea what this test logged for CCCCC/C=C\C/C=C\CCCCCCCC(=O)OC ?
Solution: inactive

Exercise: Any idea what this test logged for OC[C@@H](O)[C@H](O)[C@H](O)[C@@H](O)CO ?
Solution: inactive

Exercise: Any idea what this test logged for Clc1cc(Cl)c(Cl)cc1Cl ?
Solution: inactive

Exercise: Any idea what this test logged for CC(C)(N=C=O)c1cccc(C(C)(C)N=C=O)c1 ?
Solution: inactive

Exercise: Any idea what this test logged for NCc1cccc(CN)c1 ?
Solution: inactive

Exercise: Any idea what this test logged for c1ccc2[nH]cnc2c1 ?
Solution: inactive

Exercise: Any idea what this test logged for CN(C)c1cccc(O)c1 ?
Solution: inactive

Exercise: Any idea what this test logged for C/C=C(C)/C=C/C=C(C)C ?
Solution: inactive

Exercise: Any idea what this test logged for NC(=O)/N=N/C(N)=O ?
Solution: inactive

Exercise: Any idea what this test logged for O=C(Oc1ccccc1)c1ccc(O)cc1 ?
Solution: inactive

Exercise: Any idea what this test logged for Nc1cc(-c2ccncc2)c[nH]c1=O ?
Solution: inactive

Exercise: Any idea what this test logged for CC1=C(CC(=O)O)c2cc(F)ccc2/C1=C\c1ccc(S(C)=O)cc1 (centres undefined) ?
Solution: inactive

Exercise: Any idea what this test logged for CCCCOCCO ?
Solution: inactive

Exercise: Any idea what this test logged for CC(=O)Nc1ccc(C(=O)O)cc1 ?
Solution: inactive

Exercise: Any idea what this test logged for CCCCCCOC(C)=O ?
Solution: inactive

Exercise: Any idea what this test logged for CC1CC(OC(=O)c2ccccc2O)CC(C)(C)C1 (centres undefined) ?
Solution: inactive

Exercise: Any idea what this test logged for NCCNCCNCCNCCN ?
Solution: inactive

Exercise: Any idea what this test logged for Oc1ccc2ccccc2c1 ?
Solution: inactive

Exercise: Any idea what this test logged for CN(CCOc1ccc(CC2SC(=O)NC2=O)cc1)c1ccccn1 (centres undefined) ?
Solution: inactive

Exercise: Any idea what this test logged for CC1=C(/C=C/C(C)=C/C=C/C(C)=C/CO)C(C)(C)CCC1 ?
Solution: inactive

Exercise: Any idea what this test logged for O=Nc1ccc(O)cc1 ?
Solution: inactive

Exercise: Any idea what this test logged for CC(C)n1c(/C=C/[C@@H](O)C[C@@H](O)CC(=O)O)c(-c2ccc(F)cc2)c2ccccc21 ?
Solution: inactive

Exercise: Any idea what this test logged for CCCCC(CC)COC(C)=O (centres undefined) ?
Solution: inactive

Exercise: Any idea what this test logged for COC(=O)c1ccccc1O ?
Solution: inactive

Exercise: Any idea what this test logged for O=C(O)c1ccc([N+](=O)[O-])cc1 ?
Solution: inactive

Exercise: Any idea what this test logged for O=S(=O)(Oc1ccc(Cl)cc1Cl)c1ccccc1 ?
Solution: inactive

Exercise: Any idea what this test logged for Cc1cc(NS(=O)(=O)c2ccc(N)cc2)no1 ?
Solution: inactive

Exercise: Any idea what this test logged for Cc1cc(Cc2ccc(N)c(C)c2)ccc1N ?
Solution: inactive

Exercise: Any idea what this test logged for COCC(=O)O ?
Solution: inactive

Exercise: Any idea what this test logged for CC1=CC[C@H]2C[C@@H]1C2(C)C ?
Solution: inactive

Exercise: Any idea what this test logged for NCCc1ccc(O)c(O)c1 ?
Solution: active

Exercise: Any idea what this test logged for CC1Cc2ccccc2N1NC(=O)c1ccc(Cl)c(S(N)(=O)=O)c1 (centres undefined) ?
Solution: inactive

Exercise: Any idea what this test logged for C=C(C#N)C(=O)OCC ?
Solution: inactive

Exercise: Any idea what this test logged for OCC#CCO ?
Solution: inactive

Exercise: Any idea what this test logged for C[C@@H]1O[C@@H](OC[C@H]2O[C@@H](Oc3c(-c4ccc(O)c(O)c4)oc4cc(O)cc(O)c4c3=O)[C@H](O)[C@@H](O)[C@@H]2O)[C@H](O)[C@H](O)[C@H]1O ?
Solution: inactive

Exercise: Any idea what this test logged for CNC[C@H](O)[C@@H](O)[C@H](O)[C@H](O)CO ?
Solution: inactive

Exercise: Any idea what this test logged for OC1CCCC1 ?
Solution: inactive

Exercise: Any idea what this test logged for c1ccc2ccccc2c1 ?
Solution: inactive

Exercise: Any idea what this test logged for C=C(C)C(=O)OCCCCCC ?
Solution: inactive

Exercise: Any idea what this test logged for S=c1nc[nH]c2nc[nH]c12 ?
Solution: inactive

Exercise: Any idea what this test logged for CCCCCCCCCCCCOCC1CO1 (centres undefined) ?
Solution: inactive

Exercise: Any idea what this test logged for CN(C)c1ccc(C(=N)c2ccc(N(C)C)cc2)cc1 ?
Solution: active

Exercise: Any idea what this test logged for OCCOCCOCCOCCO ?
Solution: inactive

Exercise: Any idea what this test logged for CC1COc2ccccc2N1C(=O)C(Cl)Cl (centres undefined) ?
Solution: inactive

Exercise: Any idea what this test logged for CS(=O)(=O)c1ccc([C@@H](O)[C@@H](CO)NC(=O)C(Cl)Cl)cc1 ?
Solution: inactive

Exercise: Any idea what this test logged for CCc1ccc(O)cc1 ?
Solution: inactive

Exercise: Any idea what this test logged for C=CC(=O)OCCCCCCCC(C)C ?
Solution: inactive

###

- SYSTEM TESTED: Nuclear receptor subfamily 1 group I member 3 (Homo sapiens)
- TEST DETAILS: qHTS assay to identify small molecule agonists of the constitutive androstane receptor (CAR) signaling pathway (AID 1224839); note: nearly all actives have a fitted effect of over 15% in size;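 for activation: HepG2 cells stably carrying human CAR and a CYP2B6 luciferase reporter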
- MEASUREMENT CONDITIONS: HepG2 hCAR CYP2B6-luciferase, agonist mode, 24 h; series mostly up to 92.4 µM
Results filed as inconclusive are left out. Activity calls are given as the source filed them. Calls follow the shape of the dose curve; as a rule, active = well fitted activation curve with a large enough effect in the repeat runs; inconclusive = weak or mixed curves; inactive = no such curve, though single readings can be large or run the other way.
Answer with one of the outcomes 1 (active), -1 (inactive)

Exercise: Any idea what this test logged for OC1CCCC1 ?
Solution: -1

Exercise: Any idea what this test logged for CS(=O)(=O)Nc1ccc([N+](=O)[O-])cc1Oc1ccccc1 ?
Solution: -1

Exercise: Any idea what this test logged for CCCCOCCO ?
Solution: -1

Exercise: Any idea what this test logged for O=S(=O)(O)CCS ?
Solution: -1

Exercise: Any idea what this test logged for CCCCCCCCCCCCN ?
Solution: -1

Exercise: Any idea what this test logged for CCCCCCC(C)(C)S ?
Solution: -1

Exercise: Any idea what this test logged for Oc1ccc(OCc2ccccc2)cc1 ?
Solution: 1

Exercise: Any idea what this test logged for Cc1ccc(C(=O)O)o1 ?
Solution: -1

Exercise: Any idea what this test logged for OCC1CCCO1 (stereo unspecified) ?
Solution: -1

Exercise: Any idea what this test logged for CC1CC(OC(=O)c2ccccc2O)CC(C)(C)C1 (stereo unspecified) ?
Solution: -1

Exercise: Any idea what this test logged for CN(C)c1cccc(O)c1 ?
Solution: 1

Exercise: Any idea what this test logged for O=S(=O)(O)c1cc(S(=O)(=O)O)c2c(N=Nc3ccccc3)c(O)ccc2c1 ?
Solution: -1

Exercise: Any idea what this test logged for S=c1nc[nH]c2nc[nH]c12 ?
Solution: -1

Exercise: Any idea what this test logged for COC(=O)Nc1nc2ccc(Sc3ccccc3)cc2[nH]1 ?
Solution: 1

Exercise: Any idea what this test logged for Cc1cc(=O)[nH]c(C(C)C)n1 ?
Solution: -1

Exercise: Any idea what this test logged for CC(C)(C)C1CCC(O)CC1 (stereo unspecified) ?
Solution: -1

Exercise: Any idea what this test logged for CCCCC(CC)COC(=O)/C=C\C(=O)OCC(CC)CCCC (stereo unspecified) ?
Solution: 1

Exercise: Any idea what this test logged for CCCCC(CC)C(=O)OCCOCCOCCOC(=O)C(CC)CCCC (stereo unspecified) ?
Solution: -1

Exercise: Any idea what this test logged for Cc1cc(NS(=O)(=O)c2ccc(N)cc2)no1 ?
Solution: -1

Exercise: Any idea what this test logged for CCCCCCOC(C)=O ?
Solution: -1

Exercise: Any idea what this test logged for C=C(C)C(=O)OCCCCCCCCCCCC ?
Solution: -1
